target: SOCS-3 (Mus musculus); construct: hexahistidine (pET15b) (N); made in house; host or cells: E. coli BL21 DE3 pLysS; assay: Competitive binding assay on the Biosensor: soluble peptide displaces SOCS-3 from immobilized gp130 (750-764) phosphopeptide; set-up: species or system murine; conditions: relative to gp130 (750-764) parent phosphopeptide
Sequence (O35718 whole entry): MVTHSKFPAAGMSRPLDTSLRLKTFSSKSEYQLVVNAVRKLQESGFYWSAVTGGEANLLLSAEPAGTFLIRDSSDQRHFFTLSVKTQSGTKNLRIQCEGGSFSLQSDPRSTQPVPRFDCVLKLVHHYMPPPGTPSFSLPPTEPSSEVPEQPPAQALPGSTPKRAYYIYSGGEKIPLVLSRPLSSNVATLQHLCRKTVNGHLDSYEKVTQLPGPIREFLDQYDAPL
Square brackets hold non-standard residues; d marks the D form. Peptide text beside a SMILES is read from it. pY = N[C@@H](Cc1ccc(OP(=O)(O)O)cc1)C(=O)O
IC50 analogue/IC50 wild-type listing for selected compounds.

{"Compound": "CC(C)[C@H](NC(=O)[C@@H](NC(=O)[C@H](CO)NC(=O)[C@H](Cc1ccc(OP(=O)(O)O)cc1)NC(=O)[C@H](CCC(=O)O)NC(=O)[C@@H](NC(=O)[C@@H](NC(=O)[C@H](CO)NC(=O)[C@H](C)NC(=O)[C@@H](NC(=O)[C@@H](N)CO)[C@@H](C)O)[C@@H](C)O)C(C)C)[C@@H](C)O)C(=O)N[C@@H](C)C(=O)N[C@@H](Cc1c[nH]cn1)C(=O)N[C@@H](CO)C(=O)NCC(N)=O [STASTVE(pY)STVAHSG] (H-STASTVE[pY]STVAHSG-NH2; N-terminus assumed)", "IC50 analogue/IC50 wild-type": 10}

Incoming: So what does the record say about IC50 analogue/IC50 wild-type for `CC(C)[C@H](NC(=O)[C@@H](NC(=O)[C@@H](NC(=O)[C@H](CO)NC(=O)[C@H](Cc1ccc(OP(=O)(O)O)cc1)NC(=O)[C@H](CCC(=O)O)NC(=O)[C@@H](NC(=O)[C@@H](NC(=O)[C@H](CO)NC(=O)[C@H](C)NC(=O)[C@@H](NC(=O)[C@@H](N)CO)[C@@H](C)O)[C@@H](C)O)C(C)C)[C@@H](C)O)C(C)C)C(=O)N[C@@H](Cc1c[nH]cn1)C(=O)N[C@@H](CO)C(N)=O` ?
Outgoing: 0.55
